Value source: the supplement of paper PMC7125110

Measured self-cleavage kobs at 160 uM GlcN6P by item
B1: glmS ribozyme (parent)
chain: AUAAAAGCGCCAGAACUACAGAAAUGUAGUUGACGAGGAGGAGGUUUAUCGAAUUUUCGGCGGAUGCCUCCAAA

Variants of: B1
Assay: self-cleavage kobs at 160 uM GlcN6P; higher = faster cleavage; RNA array
Details: with glucosamine-6-phosphate
This sample holds only a part of the variants without activity.
Expressed in s⁻¹, but write only the number.

U45A U56C : 0.000234

What value of self-cleavage kobs at 160 uM GlcN6P has been reported for the following variant? A39U G40A 0.000664

What value of self-cleavage kobs at 160 uM GlcN6P has been reported for the following variant? `U65G` 0.000217

What value of self-cleavage kobs at 160 uM GlcN6P has been reported for the following variant? A6G G43C C68G 9.17e-05

What value of self-cleavage kobs at 160 uM GlcN6P has been reported for the following variant? A33G C68G 3.17e-05

What value of self-cleavage kobs at 160 uM GlcN6P has been reported for the following variant? A42G U55C 0.00147
